Origin of the recorded values: ChEMBL document CHEMBL4368854

Test system: MDA-MB-231
Assay: Cytotoxicity against human MDA-MB-231 cells after 72 hrs by MTT assay
Assay type: functional, cell-based
Settings: MDA-MB-231, 72 h
ENDPOINT LABEL: pIC50
Give bare numbers, as −log10 of the molar value.

Input line: Given COc1cc2c(c3c1OCO3)-c1c(cc(OC)c3c1OCO3)CN(CCc1ccc3c(c1)OCO3)C2 , state its recorded pIC50.
Output line: 4.06
